- System: F380Y/beta4
- ASSAY INFO: modulators of BK channel variants, profiling panel, selectivity assay, cell-based, U2OS BacMam, thallium flux, beta subunits (AID 1259406);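 further: initial slope of Thallos dye fluorescence rise after thallium is added; log ratio against the mean of 0.3% DMSO vehicle wells on the same plate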
- MEASUREMENT PARAMETERS: at 30 µM
REPORTED METRIC: log fold change Tl+ flux
No unit in the answer, only the number.

O=c1[nH]cc(F)c(=O)[nH]1 :: -0.0444

For Cc1ccc(O)c([C@H](CCN(C(C)C)C(C)C)c2ccccc2)c1 the compound record lists log fold change Tl+ flux as 0.136

---

- ASSAY INFO: decreased DLD-1 cellular survival, CellTiter-Glo luminescent readout, NPC compound collection, primary HTS (AID 1117346)
- MEASUREMENT PARAMETERS: DLD-1 viability, CellTiter-Glo luminescence; at 20 µM (top of the series)
REPORTED METRIC: viability decrease (inhibition) (%)
Lab book: enter the figure in %, no units written.

Below, 2 compounds whose answers are already recorded.
CN[C@@H]1[C@H](O)[C@H](NC)[C@H]2O[C@@]3(O)C(=O)C[C@@H](C)O[C@H]3O[C@@H]2[C@H]1O :: 3.7
COc1cc(C(=S)N2CCOCC2)ccc1O :: -2.7

For Nc1cc(C(F)(F)F)ccc1S the compound record lists viability decrease (inhibition) as 20.8

For COC(=O)c1ccc(NC(C)=O)cc1OC the compound record lists viability decrease (inhibition) as -4.9

---

- ASSAY INFO: survival rescue of mitochondrial mutant cells in low glucose, primary screen, MELAS cybrids, Rieske KO mouse fibroblasts, CellTiter-Glo (AID 1508586);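 further: z relative to plate mean and SD of compound and empty wells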
- MEASUREMENT PARAMETERS: Rieske KO mouse fibroblast survival, CellTiter-Glo 72 h
Label scheme for z-score: class A: < -0.3; class B: ≥ -0.3 and < -0.1; class C: ≥ -0.1

INPUT: Please classify: COc1cccc(-n2ncc3c(N/N=C/c4ccc(F)cc4)ncnc32)c1
OUTPUT: class C

INPUT: Please classify: CN(C)c1cc2c(Nc3ccc4c(cnn4Cc4ccccc4)c3)ncnc2cn1
OUTPUT: class B

INPUT: Please classify: O=C1NC(=O)C(c2cccc([N+](=O)[O-])c2)=C1Nc1cc(Cl)c(O)c(Cl)c1
OUTPUT: class A

INPUT: Please classify: COc1ccc2ncnc(Nc3ccc(OCc4ccccc4)cc3)c2c1
OUTPUT: class B

INPUT: Please classify: c1ccc(Nc2ncc(-c3ccccc3)o2)cc1
OUTPUT: class A

INPUT: Please classify: COc1ccc(-c2nn3ncccc3c2-c2ccnc(Nc3ccc4c(c3)OCCO4)n2)cc1
OUTPUT: class C

INPUT: Please classify: Fc1ccc(-c2cc(C3CNNC3c3ccccn3)ccn2)cc1 (stereo not given)
OUTPUT: class B

INPUT: Please classify: O=C(Nc1n[nH]c2cc(-c3ccc(F)cc3)ccc12)C1CC1
OUTPUT: class A

INPUT: Please classify: COC(=O)Nc1nc2ccc(Oc3ccc(NC(=O)Nc4ccccc4)cc3)cc2[nH]1
OUTPUT: class C

---

- Test system: F380Y/beta2Delta
- ASSAY INFO: modulators of BK channel variants, profiling panel, selectivity assay, cell-based, U2OS BacMam, thallium flux, beta subunits (AID 1259406);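 further: initial slope of Thallos dye fluorescence rise after thallium is added; log ratio against the mean of 0.3% DMSO vehicle wells on the same plate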
- MEASUREMENT PARAMETERS: at 30 µM
Classification field: TRUE = log fold change Tl+ flux at or over 0.01; FALSE = log fold change Tl+ flux under 0.01.

CN(C)CC/C=C1\c2ccccc2COc2ccccc21 :: TRUE
CCc1cccc2c3c([nH]c12)C(CC)(CC(=O)O)OCC3 (stereo unspecified) :: FALSE
c1ccc(-c2ccc(C(c3ccccc3)n3ccnc3)cc2)cc1 (stereo unspecified) :: TRUE

INPUT: Has CCOC(=O)[C@H](CCc1ccccc1)N[C@H]1CCc2ccccc2N(CC(=O)O)C1=O a recorded log fold change Tl+ flux greater than or equal to 0.01?
OUTPUT: FALSE

INPUT: Has OC(CCN1CCCCC1)(c1ccccc1)C1CCCCC1 (stereo unspecified) a recorded log fold change Tl+ flux greater than or equal to 0.01?
OUTPUT: FALSE

INPUT: Has Clc1cccc(Cl)c1NC1=NCCN1 a recorded log fold change Tl+ flux greater than or equal to 0.01?
OUTPUT: TRUE
